Test system: S. aureus ATCC 25923 biofilms
Assay: Viable plate counts and Log Reduction of S. aureus ATCC 25923 biofilms
Format: cell-based, Staphylococcus aureus
Conditions: 400 μM, viable plate counts
readout: Log Reduction (average ±SD)

Worked cases, Log Reduction (average ±SD) given:
- molecule: "CC(C)c1ccc2c(c1)CC[C@H]1[C@](C)(C(=O)N[C@@H](Cc3ccccc3)C(=O)O)CCC[C@]21C"
  Log Reduction (average ±SD): "4.3 (±0.2)"
- molecule: "CC(C)c1ccc2c(c1)CC[C@H]1[C@](C)(C(=O)N[C@H](Cc3c[nH]c4ccccc34)C(=O)O)CCC[C@]21C"
  Log Reduction (average ±SD): "6.2 (±0.4)"
- molecule: "CC1(C)S[C@@H]2[C@H](NC(=O)Cc3ccccc3)C(=O)N2[C@H]1C(=O)O [Penicillin G, reference compound]"
  Log Reduction (average ±SD): "1.0 (±0.1)"
- molecule: "CC(C)c1ccc2c(c1)CC[C@H]1[C@](C)(C(=O)N[C@@H](CC3CCCCC3)C(=O)O)CCC[C@]21C"
  Log Reduction (average ±SD): "2.3 (±0.1)"

**Q:** Given the molecule `CC(C)C[C@H](NC(=O)[C@]1(C)CCC[C@]2(C)c3ccc(C(C)C)cc3CC[C@@H]12)C(=O)O` , write its reported Log Reduction (average ±SD).
**A:** 3.9 (±0.4)
